experiment: Tissue distribution of ganetespib in female CD-1 nu/nu mice bearing RERF human NSCLC xenografts; format: in vivo; conditions: female, CD-1 nu/nu, mouse; IV 50 mg/kg, 24 hr, plasma; read-out: Plasma concentration (below the lower limit of quantitation)
Endpoint: concentration at 24 h

Reported concentration at 24 h ( CC(C)c1cc(-c2n[nH]c(=O)n2-c2ccc3c(ccn3C)c2)c(O)cc1O ) = < 2.5 nM

* * *

test: Tissue distribution of ganetespib in female CD-1 nu/nu mice bearing RERF human NSCLC xenografts; assay type: in vivo; conditions: IV 50 mg/kg, 5 min, tumor
Endpoint: Concentration in tumor (nM)
Supply the numeric figure in nM, leaving out any unit text.

// field: Concentration in tumor; key: CC(C)c1cc(-c2n[nH]c(=O)n2-c2ccc3c(ccn3C)c2)c(O)cc1O ; value = 2350

* * *

assay: Stability of SDC-TRAPs in mouse plasma; assay type: in vitro ADME; conditions: 37° C.
Kindly state % Remaining (1 h) for each of the entries shown.
Answer in %, number only, no unit symbol.

compound CC(C)C[C@H](NC(=O)[C@H](Cc1ccccc1)NC(=O)c1cnccn1)B1OC(C)(C)C(C)(c2ccc(C(=O)N3CCN(Cc4ccc(-n5c(O)nnc5-c5cc(C(C)C)c(O)cc5O)cc4)CC3)cc2)O1 (some centres unmarked) , % Remaining (1 h) observed: 25.5

Quick note, % Remaining (1 h) for CCNC(=O)c1nnc(-c2cc(C(C)C)c(O)cc2O)n1-c1ccc(Oc2ccc(C(=O)N3CCC4(CC3)OB([C@H](CC(C)C)NC(=O)[C@H](Cc3ccccc3)NC(=O)c3cnccn3)OC4(C)C)cc2)cc1 landed at 8.93

Measured % Remaining (1 h), CC(C)C[C@H](NC(=O)[C@H](Cc1ccccc1)NC(=O)c1cnccn1)B1OC(C)(C)C(C)(c2ccc(C(=O)N3CCc4ccc(-n5c(O)nnc5-c5cc(C(C)C)c(O)cc5O)cc4C3)cc2)O1 (some centres unmarked) : 35.8

Please fill in: % Remaining (1 h) reported for CCNC(=O)c1nnc(-c2cc(C(C)C)c(O)cc2O)n1-c1ccc(C(=O)NCCCCCCC2(C)OB([C@H](CC(C)C)NC(=O)[C@H](Cc3ccccc3)NC(=O)c3cnccn3)OC2(C)C)cc1 (some centres unmarked) = 11.8

Lab book: % Remaining (1 h) of CC(C)C[C@H](NC(=O)[C@H](Cc1ccccc1)NC(=O)c1cnccn1)B1O[C@H]2C[C@H]3C[C@H](C3(C)C)[C@@]2(CC(=O)N2CCC(CCn3ccc4cc(-n5c(O)nnc5-c5cc(C(C)C)c(O)cc5O)ccc43)CC2)O1 noted as 44.2
